assay-explanation: High-throughput drug toxicity screening in the BPDCN cell line Gen2.2 (AID 1224824);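 also: cells exposed to compounds for 48 h before reading; 100% = DMSO and 0% = bortezomib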
condition-details: Gen2.2 BPDCN cells; at 45.8 µM (top of the series) unless noted
property: cell viability, % of control (lower = more cytotoxic) (%)
Numbers only here, please. The scale is %.

Some compounds with known cell viability, % of control (lower = more cytotoxic) results, for comparison:
O=c1[nH]nc(OCCCc2ccc(Cl)cc2)c(NCc2cccnc2)c1Br    9.32
CCOC(=O)N1c2ccc(C(F)(F)F)cc2[C@@H](N(Cc2cc(C(F)(F)F)cc(C(F)(F)F)c2)C(=O)OC)C[C@H]1CC    115
CO[C@H]1O[C@@H]2O[C@@]3(C)CC[C@@H]4[C@@H](C)CC[C@@H]([C@H]1C)[C@@]24OO3    62.1
Nc1ccn([C@@H]2O[C@H](CO)[C@@H](O)[C@H]2O)c(=O)n1    86.2
CCOC(=O)N1CCN([N+]([O-])=NOc2cc(ON=[N+]([O-])N3CCN(C(=O)OCC)CC3)c([N+](=O)[O-])cc2[N+](=O)[O-])CC1    87.7

Any idea what cell viability, % of control (lower = more cytotoxic) was measured for COc1cc2c(cc1OC)[C@@H]1Cc3ccc(OC)c(OC)c3CN1CC2 ?
132

// query cell viability, % of control (lower = more cytotoxic) value for entry COc1ccc(-c2cc(=O)c3c(O)cc(O[C@@H]4O[C@H](CO[C@@H]5O[C@@H](C)[C@H](O)[C@@H](O)[C@@H]5O)[C@@H](O)[C@H](O)[C@@H]4O)cc3o2)cc1O
93

Report cell viability, % of control (lower = more cytotoxic) for NC(N)=Nc1nc(CSCCC(N)=NS(N)(=O)=O)cs1 please.
171

Tell me the measured cell viability, % of control (lower = more cytotoxic) of N#CC1(c2cccc(C(=O)Nc3cc(Oc4ccc5nc(NC(=O)C6CC6)sc5n4)ccc3F)c2Cl)CC1 , please.
7.3

Entry COc1nccc(-c2c(-c3ccc(F)cc3)ncn2C2CCC(O)CC2)n1 (stereo not drawn) : reported cell viability, % of control (lower = more cytotoxic) = ?
192

I am curious: what cell viability, % of control (lower = more cytotoxic) value has been reported for CCCCCCCCCCCCCC(=O)N[C@H](CO)[C@H](O)c1ccc([N+](=O)[O-])cc1 ?
1.84

Give its cell viability, % of control (lower = more cytotoxic) value. Item: CCOC(=O)[C@H]1O[C@H]1C(=O)N[C@@H](CC(C)C)C(=O)NCCC(C)C
74.8

Requested read-out: cell viability, % of control (lower = more cytotoxic). Entry: CCCCC(F)(F)[C@@]1(O)CC[C@H]2[C@H](CC(=O)[C@@H]2CCCCCCC(=O)O)O1
92.5

Suppose we examine the compound COC(=O)N1CCN(Cc2cccc(NC(=O)Nc3ccc(C)nc3)c2F)CC1 ; what cell viability, % of control (lower = more cytotoxic) value has been reported?
149

Quick one: cell viability, % of control (lower = more cytotoxic) for CC(C)N(CCCNC(=O)Nc1ccc(C(C)(C)C)cc1)C[C@H]1O[C@@H](n2cc(Br)c3c(N)ncnc32)[C@H](O)[C@H]1O ?
116

cell viability, % of control (lower = more cytotoxic) for CC(C)(OCc1nn(Cc2ccccc2)c2ccccc12)C(=O)O ?
148

Recorded cell viability, % of control (lower = more cytotoxic) of CC(C)C[C@@H](C(=O)N[C@H](C(=O)OC1CCCC1)c1ccccc1)[C@H](O)C(=O)NO , please.
6.81

Would you mind telling me what cell viability, % of control (lower = more cytotoxic) value was observed for C[C@@H](NC(=O)c1ncnc(N)c1Cl)c1ncc(C(=O)Nc2cc(C(F)(F)F)c(Cl)cn2)s1 ?
2.67
